Conditions: in n-propanol, 278.15 K
measure name: solubility (mole fraction)

> print(dat)
                  compound.structure.string                measure.name  obs.value
1  OC[C@H]1O[C@@H](c2ccc(Cl)c(Cc3ccc(O[C@H]4CCOC4)cc3)c2)[C@H](O)[C@@H](O)[C@@H]1O  solubility (mole fraction)   1.59e-06

---

Conditions: in n-propanol, 313.15 K
measure name: solubility (mole fraction)

> print(dat)
                  compound.structure.string  obs.value
1  OC[C@H]1O[C@@H](c2ccc(Cl)c(Cc3ccc(O[C@H]4CCOC4)cc3)c2)[C@H](O)[C@@H](O)[C@@H]1O   1.43e-05

---

Settings: in acetonitrile, 313.15 K
measure name: solubility (mole fraction)

> print(dat)
                  compound.structure.string  obs.value
1  OC[C@H]1O[C@@H](c2ccc(Cl)c(Cc3ccc(O[C@H]4CCOC4)cc3)c2)[C@H](O)[C@@H](O)[C@@H]1O   6.15e-06

---

Conditions: in acetonitrile, 288.15 K
measure name: solubility (mole fraction)

> print(dat)
                  compound.structure.string                measure.name  obs.value
1  OC[C@H]1O[C@@H](c2ccc(Cl)c(Cc3ccc(O[C@H]4CCOC4)cc3)c2)[C@H](O)[C@@H](O)[C@@H]1O  solubility (mole fraction)   1.46e-06

---

Details: in ethanol, 293.15 K
measure name: solubility (mole fraction)

> print(dat)
                  compound.structure.string                measure.name  obs.value
1  OC[C@H]1O[C@@H](c2ccc(Cl)c(Cc3ccc(O[C@H]4CCOC4)cc3)c2)[C@H](O)[C@@H](O)[C@@H]1O  solubility (mole fraction)    6.6e-06

---

Conditions: in n-butanol, 278.15 K
measure name: solubility (mole fraction)

> print(dat)
                  compound.structure.string                measure.name  obs.value
1  OC[C@H]1O[C@@H](c2ccc(Cl)c(Cc3ccc(O[C@H]4CCOC4)cc3)c2)[C@H](O)[C@@H](O)[C@@H]1O  solubility (mole fraction)   1.81e-06

---

Conditions: in formamide, 293.15 K
measure name: solubility (mole fraction)

> print(dat)
                  compound.structure.string  obs.value
1  OC[C@H]1O[C@@H](c2ccc(Cl)c(Cc3ccc(O[C@H]4CCOC4)cc3)c2)[C@H](O)[C@@H](O)[C@@H]1O   0.000122

---

Conditions: in ethylene glycol, 293.15 K
measure name: solubility (mole fraction)

> print(dat)
                  compound.structure.string                measure.name  obs.value
1  OC[C@H]1O[C@@H](c2ccc(Cl)c(Cc3ccc(O[C@H]4CCOC4)cc3)c2)[C@H](O)[C@@H](O)[C@@H]1O  solubility (mole fraction)   2.43e-05

---

Conditions: in formamide, 288.15 K
measure name: solubility (mole fraction)

> print(dat)
                  compound.structure.string  obs.value
1  OC[C@H]1O[C@@H](c2ccc(Cl)c(Cc3ccc(O[C@H]4CCOC4)cc3)c2)[C@H](O)[C@@H](O)[C@@H]1O   0.000108
